Below, each entry is listed alongside its reported Ki.
System under test: T1, human GIP receptor (human, UniProt P48546 22-466)
T1 construct: whole, on cells; cAMP assays used the whole cells; also called hGIPR
T1 sequence (looked up): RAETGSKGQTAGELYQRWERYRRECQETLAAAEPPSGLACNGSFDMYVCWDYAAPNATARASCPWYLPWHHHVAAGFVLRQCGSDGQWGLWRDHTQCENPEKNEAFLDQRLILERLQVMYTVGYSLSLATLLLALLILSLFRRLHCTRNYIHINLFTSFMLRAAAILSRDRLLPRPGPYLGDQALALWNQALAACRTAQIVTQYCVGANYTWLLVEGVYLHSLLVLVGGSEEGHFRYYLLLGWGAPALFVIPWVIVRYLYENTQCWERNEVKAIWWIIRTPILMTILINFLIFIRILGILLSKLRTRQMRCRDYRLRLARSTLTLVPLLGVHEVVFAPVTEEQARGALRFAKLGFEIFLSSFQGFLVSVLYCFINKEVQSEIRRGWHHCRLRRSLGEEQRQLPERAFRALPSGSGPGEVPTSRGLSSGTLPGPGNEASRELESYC
Assay remarks: radioligand competition SPA, membranes of HEK293 cells overexpressing human GIPR

{"columns": ["Binder", "Val"],
 "data": [
  ["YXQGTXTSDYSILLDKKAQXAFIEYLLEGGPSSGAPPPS (Aib at 2; αMeF at 6; K17 conjugated at the epsilon-amino group with (2-[2-(2-amino-ethoxy)-ethoxy]-acetyl)2-(γGlu)-CO-(CH2)18-CO2H; Aib at 20; C-terminal amide, Synthetic acylated peptide) [Example 1]", "0.0278 nM"],
  ["YXHGTXTSDYSILLDKKAQXAFIEYLLEGGPSSGAPPPS (Aib at 2; αMeF(2F) at 6; K17 conjugated at the epsilon-amino group with (2-[2-(2-amino-ethoxy)-ethoxy]-acetyl)2-(γGlu)-CO-(CH2)18-CO2H; Aib at 20; C-terminal amide, Synthetic acylated peptide) [Example 3]", "0.0684 nM"],
  ["YXQGTXTSDYSIXLDKKAQXAFIEYLLEGGPSSGAPPPS (Aib at 2; αMeF at 6; αMeL at 13; K17 conjugated at the epsilon-amino group with (2-[2-(2-amino-ethoxy)-ethoxy]-acetyl)2-(γGlu)-CO-(CH2)18-CO2H; Aib at 20; C-terminal amide, Synthetic acylated peptide) [Example 2]", "0.0413 nM"]
]}

We now examine a further binder.
## Input Answer with reported Ki of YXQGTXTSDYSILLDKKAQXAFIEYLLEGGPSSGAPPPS (Aib at 2; αMeF(2F) at 6; K17 conjugated at the epsilon-amino group with (2-[2-(2-amino-ethoxy)-ethoxy]-acetyl)-(γGlu)-CO-(CH2)18-CO2H; Aib at 20; C-terminal amide, Synthetic acylated peptide) [Example 4]
## Output 0.0832 nM
